molecular target: Neuraminidase (Influenza A virus, UniProt B4URF0); test: Inhibition of Influenza A virus (A/Indonesia/5/2005(H5N1)) […] recombinant neuraminidase using 2'-(4-methylumbelliferyl)-alpha-D-N-acetylneuraminic acid as substrate after 1 hr by fluorescence assay
Sequence (B4URF0 whole entry): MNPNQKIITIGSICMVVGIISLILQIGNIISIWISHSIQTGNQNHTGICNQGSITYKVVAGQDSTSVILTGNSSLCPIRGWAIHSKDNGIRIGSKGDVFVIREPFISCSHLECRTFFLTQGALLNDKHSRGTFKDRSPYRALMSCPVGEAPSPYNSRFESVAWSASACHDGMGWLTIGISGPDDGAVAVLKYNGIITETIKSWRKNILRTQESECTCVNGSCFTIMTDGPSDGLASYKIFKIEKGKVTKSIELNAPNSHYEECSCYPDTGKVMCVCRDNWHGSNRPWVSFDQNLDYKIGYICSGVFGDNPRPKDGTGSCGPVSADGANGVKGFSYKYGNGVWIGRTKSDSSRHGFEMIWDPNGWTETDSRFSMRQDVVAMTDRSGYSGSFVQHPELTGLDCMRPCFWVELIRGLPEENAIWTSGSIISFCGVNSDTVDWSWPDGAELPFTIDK
Kindly state IC50 for each of the entries shown.
Your answer is read as µM, so omit the unit and give the number.

Ask: Query the reported IC50 for Neuraminidase (Influenza A virus, UniProt B4URF0); item: CC(=O)N[C@H]1[C@H]([C@H](O)[C@H](O)CO)OC(C(=O)O)=C[C@@H]1NC(=O)N[C@@H](C)C(=O)O
Result: 690

Ask: Query the reported IC50 for Neuraminidase (Influenza A virus, UniProt B4URF0); item: CC(=O)N[C@H]1[C@H]([C@H](O)[C@H](O)CO)OC(C(=O)O)=C[C@@H]1NC(=O)NCC(=O)O
Result: 113

* * *

target: Neuraminidase (Influenza A virus, UniProt B4URF0); assay: Inhibition of Influenza A virus (A/Sydney/5/97(H3N2)) recombinant neuraminidase using 2'-(4- methylumbelliferyl)-alpha-D-N-acetylneuraminic acid as substrate after 1 hr by fluorescence assay; design: species or system Influenza A virus (A/Sydney/5/1997(H3N2))
Kindly state pIC50 for each of the entries shown.
Note: pIC50 values are expressed as the negative base-10 logarithm of concentration in M.

Ask: Which measured pIC50 value corresponds to CC(=O)N[C@H]1[C@H]([C@H](O)[C@H](O)CO)OC(C(=O)O)=C[C@@H]1NC(=S)Nc1ccccc1F ?
Result: 4.24

Ask: Which measured pIC50 value corresponds to CC(=O)N[C@H]1[C@H]([C@H](O)[C@H](O)CO)OC(C(=O)O)=C[C@@H]1NC(=O)N[C@H](C(=O)O)C(C)C ?
Result: 4.26

Ask: Which measured pIC50 value corresponds to CC(=O)N[C@H]1[C@H]([C@H](O)[C@H](O)CO)OC(C(=O)O)=C[C@@H]1NC(=S)Nc1cccc2ccccc12 ?
Result: 3.17

Ask: Which measured pIC50 value corresponds to CSCC[C@H](NC(=O)N[C@H]1C=C(C(=O)O)O[C@@H]([C@H](O)[C@H](O)CO)[C@@H]1NC(C)=O)C(=O)O ?
Result: 3.38

Ask: Which measured pIC50 value corresponds to COc1ccc(NC(=O)N[C@H]2C=C(C(=O)O)O[C@@H]([C@H](O)[C@H](O)CO)[C@@H]2NC(C)=O)cc1 ?
Result: 3.07

* * *

molecular target: UniProtKB B4URF0; assay: Inhibition of Influenza A virus (A/Sydney/5/97(H3N2)) recombinant neuraminidase using 2'-(4- methylumbelliferyl)-alpha-D-N-acetylneuraminic acid as substrate after 1 hr by fluorescence assay; set-up: species or system Influenza A virus (A/Sydney/5/1997(H3N2))
ENDPOINT_LABEL: pIC50
Note: pIC50 values are expressed as the negative base-10 logarithm of concentration in M.

Ask: Which measured pIC50 value corresponds to COc1ccccc1NC(=S)N[C@H]1C=C(C(=O)O)O[C@@H]([C@H](O)[C@H](O)CO)[C@@H]1NC(C)=O ?
Result: 4.05

Ask: Which measured pIC50 value corresponds to CC(=O)N[C@H]1[C@H]([C@H](O)[C@H](O)CO)OC(C(=O)O)=C[C@@H]1NC(=O)N[C@@H](Cc1ccccc1)C(=O)O ?
Result: 3.20

Ask: Which measured pIC50 value corresponds to CC(=O)N[C@H]1[C@H]([C@H](O)[C@H](O)CO)OC(C(=O)O)=C[C@@H]1NC(=O)N[C@@H](C)C(=O)NCC(=O)O ?
Result: 3.99

Ask: Which measured pIC50 value corresponds to CC(=O)N[C@H]1[C@H]([C@H](O)[C@H](O)CO)OC(C(=O)O)=C[C@@H]1N1CCN(c2cccc(C(F)(F)F)c2)CC1 ?
Result: 3.57

Ask: Which measured pIC50 value corresponds to CC(=O)N[C@H]1[C@H]([C@H](O)[C@H](O)CO)OC(C(=O)O)=C[C@@H]1NC(=O)N1CCC[C@H]1C(=O)O ?
Result: 3.24

Ask: Which measured pIC50 value corresponds to CC(=O)N[C@H]1[C@H]([C@H](O)[C@H](O)CO)OC(C(=O)O)=C[C@@H]1NC(=O)NCC(=O)O ?
Result: 3.28

Ask: Which measured pIC50 value corresponds to CCNC(=S)N[C@H]1C=C(C(=O)O)O[C@@H]([C@H](O)[C@H](O)CO)[C@@H]1NC(C)=O ?
Result: 3.21

Ask: Which measured pIC50 value corresponds to CC(=O)N[C@H]1[C@H]([C@H](O)[C@H](O)CO)OC(C(=O)O)=C[C@@H]1NC(=O)N[C@@H](CC(N)=O)C(=O)O ?
Result: 6.24

Ask: Which measured pIC50 value corresponds to CC(=O)N[C@H]1[C@H]([C@H](O)[C@H](O)CO)OC(C(=O)O)=C[C@@H]1N1CCN(c2ccccc2)CC1 ?
Result: 3.08

Ask: Which measured pIC50 value corresponds to CC(=O)N[C@H]1[C@H]([C@H](O)[C@H](O)CO)OC(C(=O)O)=C[C@@H]1NC(=O)N[C@@H](CCC(N)=O)C(=O)O ?
Result: 4.24

Ask: Which measured pIC50 value corresponds to CC(=O)N[C@H]1[C@H]([C@H](O)[C@H](O)CO)OC(C(=O)O)=C[C@@H]1N1CCC2(CC1)OCCO2 ?
Result: 3.29

Ask: Which measured pIC50 value corresponds to CC(=O)N[C@H]1[C@H]([C@H](O)[C@H](O)CO)OC(C(=O)O)=C[C@@H]1NC(=O)NCC(=O)NCC(=O)O ?
Result: 4.16

* * *

target: Neuraminidase (Influenza A virus, UniProt B4URF0); assay: Inhibition of Influenza A virus (A/Indonesia/5/2005(H5N1)) […] recombinant neuraminidase using 2'-(4-methylumbelliferyl)-alpha-D-N-acetylneuraminic acid as substrate after 1 hr by fluorescence assay
ENDPOINT_LABEL: pIC50
Note: pIC50 values are expressed as the negative base-10 logarithm of concentration in M.

Ask: Which measured pIC50 value corresponds to CC(=O)N[C@H]1[C@H]([C@H](O)[C@H](O)CO)OC(C(=O)O)=C[C@@H]1NC(=O)N[C@@H](CC(N)=O)C(=O)O ?
Result: 5.57

Ask: Which measured pIC50 value corresponds to COc1ccc(NC(=O)N[C@H]2C=C(C(=O)O)O[C@@H]([C@H](O)[C@H](O)CO)[C@@H]2NC(C)=O)cc1 ?
Result: 3.04

Ask: Which measured pIC50 value corresponds to CC(=O)N[C@H]1[C@H]([C@H](O)[C@H](O)CO)OC(C(=O)O)=C[C@@H]1NC(=S)Nc1ccccc1F ?
Result: 3.40

Ask: Which measured pIC50 value corresponds to COc1ccccc1NC(=S)N[C@H]1C=C(C(=O)O)O[C@@H]([C@H](O)[C@H](O)CO)[C@@H]1NC(C)=O ?
Result: 3.24

* * *

experiment: Clearance in Sprague-Dawley rat at 2 mg/kg, iv; format: ADME, organism-based; set-up: dose 2 mg/kg, route intravenous; settings: in vivo
ENDPOINT_LABEL: clearance (mL/min/kg)
Your answer is read as mL/min/kg, so omit the unit and give the number.

Ask: Which measured clearance value corresponds to CC(=O)N[C@H]1[C@H]([C@H](O)[C@H](O)CO)OC(C(=O)O)=C[C@@H]1NC(=N)N [ZANAMIVIR] ?
Result: 1.42

* * *

test: in vivo; details: Sprague-Dawley, rat, plasma, iv, 10 mg/kg
ENDPOINT_LABEL: AUC(0-t) (ng·h/mL)
Your answer is read as ng·h/mL, so omit the unit and give the number.

Ask: Which measured AUC(0-t) value corresponds to CC(=O)N[C@H]1[C@H]([C@H](O)[C@H](O)CO)OC(C(=O)O)=C[C@@H]1NC(=O)NCc1ccco1 ?
Result: 14000

* * *

molecular target: Neuraminidase (Influenza A virus); assay: Inhibition of Influenza A virus (A/Indonesia/5/2005(H5N1)) […] recombinant neuraminidase using 2'-(4-methylumbelliferyl)-alpha-D-N-acetylneuraminic acid as substrate after 1 hr by fluorescence assay
// NB: equality with 500 µM counts as not met; only IC50 strictly below is met

Ask: Is it true that IC50 reported for CC(=O)N[C@H]1[C@H]([C@H](O)[C@H](O)CO)OC(C(=O)O)=C[C@@H]1N1CCC2(CC1)OCCO2 is less than 500 µM?
Result: not met

Ask: Is it true that IC50 reported for CC(=O)N[C@H]1[C@H]([C@H](O)[C@H](O)CO)OC(C(=O)O)=C[C@@H]1N1CCN(c2ccccc2)CC1 is less than 500 µM?
Result: not met

Ask: Is it true that IC50 reported for CC(=O)N[C@H]1[C@H]([C@H](O)[C@H](O)CO)OC(C(=O)O)=C[C@@H]1NC(=O)N[C@H](CC(N)=O)C(=O)O is less than 500 µM?
Result: met

Ask: Is it true that IC50 reported for CC(=O)N[C@H]1[C@H]([C@H](O)[C@H](O)CO)OC(C(=O)O)=C[C@@H]1NC(=S)Nc1ccccc1Br is less than 500 µM?
Result: not met

Ask: Is it true that IC50 reported for CC(=O)N[C@H]1[C@H]([C@H](O)[C@H](O)CO)OC(C(=O)O)=C[C@@H]1NC(=S)Nc1cccc(C(F)(F)F)c1 is less than 500 µM?
Result: not met

Ask: Is it true that IC50 reported for CC(=O)N[C@H]1[C@H]([C@H](O)[C@H](O)CO)OC(C(=O)O)=C[C@@H]1NC(=O)N[C@@H](Cc1ccccc1)C(=O)O is less than 500 µM?
Result: not met

Ask: Is it true that IC50 reported for CC(=O)N[C@H]1[C@H]([C@H](O)[C@H](O)CO)OC(C(=O)O)=C[C@@H]1NC(=O)N[C@H](C(=O)O)[C@@H](C)O is less than 500 µM?
Result: met

Ask: Is it true that IC50 reported for CC(=O)N[C@H]1[C@H]([C@H](O)[C@H](O)CO)OC(C(=O)O)=C[C@@H]1NC(=S)NCCCl is less than 500 µM?
Result: met

Ask: Is it true that IC50 reported for COc1cccc(NC(=S)N[C@H]2C=C(C(=O)O)O[C@@H]([C@H](O)[C@H](O)CO)[C@@H]2NC(C)=O)c1 is less than 500 µM?
Result: not met

Ask: Is it true that IC50 reported for CC(=O)N[C@H]1[C@H]([C@H](O)[C@H](O)CO)OC(C(=O)O)=C[C@@H]1N1CCCC(C(=O)O)C1 (some centres undefined) is less than 500 µM?
Result: not met

Ask: Is it true that IC50 reported for CC(=O)N[C@H]1[C@H]([C@H](O)[C@H](O)CO)OC(C(=O)O)=C[C@@H]1NC(=S)Nc1cccc2ccccc12 is less than 500 µM?
Result: not met

Ask: Is it true that IC50 reported for CC(=O)N[C@H]1[C@H]([C@H](O)[C@H](O)CO)OC(C(=O)O)=C[C@@H]1NC(=O)Nc1ccc(C)cc1 is less than 500 µM?
Result: not met

Ask: Is it true that IC50 reported for CSCC[C@H](NC(=O)N[C@H]1C=C(C(=O)O)O[C@@H]([C@H](O)[C@H](O)CO)[C@@H]1NC(C)=O)C(=O)O is less than 500 µM?
Result: met

Ask: Is it true that IC50 reported for CC(=O)N[C@H]1[C@H]([C@H](O)[C@H](O)CO)OC(C(=O)O)=C[C@@H]1NC(=O)N[C@@H](C)C(=O)NCC(=O)O is less than 500 µM?
Result: met

Ask: Is it true that IC50 reported for CCCCNC(=S)N[C@H]1C=C(C(=O)O)O[C@@H]([C@H](O)[C@H](O)CO)[C@@H]1NC(C)=O is less than 500 µM?
Result: met

Ask: Is it true that IC50 reported for CC(=O)N[C@H]1[C@H]([C@H](O)[C@H](O)CO)OC(C(=O)O)=C[C@@H]1NC(=S)NC1CC1 is less than 500 µM?
Result: met

Ask: Is it true that IC50 reported for CC(=O)N[C@H]1[C@H]([C@H](O)[C@H](O)CO)OC(C(=O)O)=C[C@@H]1NC(=O)NCc1ccccc1 is less than 500 µM?
Result: not met

Ask: Is it true that IC50 reported for CC(=O)N[C@H]1[C@H]([C@H](O)[C@H](O)CO)OC(C(=O)O)=C[C@@H]1NC(=O)N[C@@H](CCC(N)=O)C(=O)O is less than 500 µM?
Result: met

Ask: Is it true that IC50 reported for CC(=O)N[C@H]1[C@H]([C@H](O)[C@H](O)CO)OC(C(=O)O)=C[C@@H]1NC(=O)NCc1ccco1 is less than 500 µM?
Result: met

Ask: Is it true that IC50 reported for CC(=O)N[C@H]1[C@H]([C@H](O)[C@H](O)CO)OC(C(=O)O)=C[C@@H]1N1CCOCC1 is less than 500 µM?
Result: not met

Ask: Is it true that IC50 reported for CC(=O)N[C@H]1[C@H]([C@H](O)[C@H](O)CO)OC(C(=O)O)=C[C@@H]1NC(=O)NCC(=O)NCC(=O)O is less than 500 µM?
Result: met

Ask: Is it true that IC50 reported for CC(=O)N[C@H]1[C@H]([C@H](O)[C@H](O)CO)OC(C(=O)O)=C[C@@H]1N1CCN(c2cccc(C(F)(F)F)c2)CC1 is less than 500 µM?
Result: met

Ask: Is it true that IC50 reported for CC(=O)N[C@H]1[C@H]([C@H](O)[C@H](O)CO)OC(C(=O)O)=C[C@@H]1NC(=O)N[C@H](C(=O)O)C(C)C is less than 500 µM?
Result: not met

Ask: Is it true that IC50 reported for CCNC(=S)N[C@H]1C=C(C(=O)O)O[C@@H]([C@H](O)[C@H](O)CO)[C@@H]1NC(C)=O is less than 500 µM?
Result: met
